For each entry below, report its Affinity 1 Ka^Gal-1 / Ka^HSA value.
# tested system: Human gal-1 (Homo sapiens, UniProt P09382)
# Construct: purchased Peprotech
# Sequence (P09382 whole entry): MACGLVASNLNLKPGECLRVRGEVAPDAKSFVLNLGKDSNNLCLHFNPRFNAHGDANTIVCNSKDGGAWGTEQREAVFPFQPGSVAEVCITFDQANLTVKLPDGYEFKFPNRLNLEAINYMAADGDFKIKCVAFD
# method notes: Gal-1 binding of the isolated phage clones (ELISA), affinity constants against gal-1 or control proteins (HSA, collagen)
# condition context: phage clone expressing the peptide; Ka = 1/K*d; one representative clone per sequence
Enter a number only.

Human gal-1 (Homo sapiens, UniProt P09382) / Affinity 1 Ka^Gal-1 / Ka^HSA / YHHSGPYAGPMW [Peptide P5] : value?
1.25

Human gal-1 (Homo sapiens, UniProt P09382) / Affinity 1 Ka^Gal-1 / Ka^HSA / VHWDFRQWWQPS [Peptide P4] : value?
1.18

Human gal-1 (Homo sapiens, UniProt P09382) / Affinity 1 Ka^Gal-1 / Ka^HSA / DWSSWVYRDPQT [Peptide P8] : value?
1.23

Human gal-1 (Homo sapiens, UniProt P09382) / Affinity 1 Ka^Gal-1 / Ka^HSA / YTFHFDIFQPHF [Peptide P2] : value?
121.56

Human gal-1 (Homo sapiens, UniProt P09382) / Affinity 1 Ka^Gal-1 / Ka^HSA / HYSWSWIAYSPG [Peptide P3] : value?
0.99

Human gal-1 (Homo sapiens, UniProt P09382) / Affinity 1 Ka^Gal-1 / Ka^HSA / SVYVEISWVRTM [Peptide P6] : value?
1.17

====

# tested system: Human gal-1 (Homo sapiens)
# Construct: purchased Peprotech
# method notes: Gal-1 binding of the isolated phage clones (ELISA), affinity constants against gal-1 or control proteins (HSA, collagen)
# condition context: phage clone expressing the peptide; specific affinity vs mean of control proteins
measurement label: Affinity 3 Ka^Gal-1/ ((Ka^HSA + Ka^Coll)/2)

Form field: reported Affinity 3 Ka^Gal-1/ ((Ka^HSA + Ka^Coll)/2) of HYSWSWIAYSPG [Peptide P3]
1.14

Form field: reported Affinity 3 Ka^Gal-1/ ((Ka^HSA + Ka^Coll)/2) of YHHSGPYAGPMW [Peptide P5]
2.50

Form field: reported Affinity 3 Ka^Gal-1/ ((Ka^HSA + Ka^Coll)/2) of VHWDFRQWWQPS [Peptide P4]
1.47

Form field: reported Affinity 3 Ka^Gal-1/ ((Ka^HSA + Ka^Coll)/2) of DWSSWVYRDPQT [Peptide P8]
2.36

Form field: reported Affinity 3 Ka^Gal-1/ ((Ka^HSA + Ka^Coll)/2) of YTFHFDIFQPHF [Peptide P2]
25.66

Form field: reported Affinity 3 Ka^Gal-1/ ((Ka^HSA + Ka^Coll)/2) of SVYVEISWVRTM [Peptide P6]
1.17
